- target.desc: MTHFD1 recombinant human enzyme (Homo sapiens)
- Sequence (P11586 2-291 limits assumed): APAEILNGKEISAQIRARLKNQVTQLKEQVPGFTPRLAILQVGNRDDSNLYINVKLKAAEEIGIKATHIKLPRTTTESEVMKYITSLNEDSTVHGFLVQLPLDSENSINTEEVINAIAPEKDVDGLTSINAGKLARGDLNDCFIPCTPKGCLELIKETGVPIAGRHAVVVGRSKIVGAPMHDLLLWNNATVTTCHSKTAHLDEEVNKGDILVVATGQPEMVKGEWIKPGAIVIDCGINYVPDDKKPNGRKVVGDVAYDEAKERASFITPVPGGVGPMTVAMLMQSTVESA
- experiment.notes: MTHFD1 inhibition assay (NAD(P)H-Glo luminescence)
- experimental.conditions: MTHFD1 IC50, recombinant human enzyme 200 nM, NADP, band
reported.metric: IC50

                            molecule_smiles  reported_metric  measured_value
0  COC[C@H]1CN(c2ccc3c4c(c(=O)oc3c2C)CN(C(=O)c2ccc(C(=O)NS(=O)(=O)C3(C)CC3)c(O[C@@H]3C[C@@H]5C[C@@H]5C3)c2F)CC4)CCN1C             IC50      1 to 10 nM
1  COC[C@H]1CN(c2cc(C)c3c4c(c(=O)oc3c2C)CN(C(=O)c2ccc(C(=O)NS(=O)(=O)N3CCCC3)c(OC(F)F)c2F)CC4)CCN1C             IC50  100 to 1000 nM
2  COC[C@H]1CN(c2cc(Cl)c3c4c(c(=O)oc3c2C)CN(C(=O)c2cc(OC3CC3)c(C(=O)NS(=O)(=O)N(C)C)cc2F)CC4)CCN1C             IC50  100 to 1000 nM

###

Consider the following molecules and their measured IC50 readings.
- target.desc: MTHFD2 recombinant human enzyme (Homo sapiens, UniProt P13995)
- Sequence (P13995 36-350): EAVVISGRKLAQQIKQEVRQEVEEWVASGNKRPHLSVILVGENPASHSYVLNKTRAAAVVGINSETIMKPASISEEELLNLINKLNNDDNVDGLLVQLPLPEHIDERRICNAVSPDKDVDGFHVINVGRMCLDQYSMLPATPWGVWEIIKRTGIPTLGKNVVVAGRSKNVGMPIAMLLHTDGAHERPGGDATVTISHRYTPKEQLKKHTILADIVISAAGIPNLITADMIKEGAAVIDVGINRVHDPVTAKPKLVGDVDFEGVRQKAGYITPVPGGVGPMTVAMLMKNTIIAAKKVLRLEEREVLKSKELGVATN
- experiment.notes: MTHFD2 inhibition assay (NAD(P)H-Glo luminescence)
reported.metric: IC50

>>> df
                            molecule_smiles                               target_desc  reported_metric  measured_value
0  COC[C@H]1CN(c2cc(C)c3c4c(c(=O)oc3c2C)CN(C(=O)c2ccc(C(=O)NS(=O)(=O)N3C[C@H]5CCC[C@H]5C3)cc2)CC4)CCN1C  MTHFD2 recombinant human enzyme (Homo sapiens, UniProt P13995)             IC50    10 to 100 nM
1  CCOc1cc(C(=O)N2CCc3c(c(=O)oc4c(C)c(N5CCN(C)[C@@H](COC)C5)cc(C)c34)C2)c(F)cc1C(=O)NS(=O)(=O)N1CCC(C)(C)C1  MTHFD2 recombinant human enzyme (Homo sapiens, UniProt P13995)             IC50    10 to 100 nM
2  COC[C@H]1CN(c2cc(C)c3c4c(c(=O)oc3c2C)CN(C(=O)c2ccc(C(=O)NS(=O)(=O)N(C)C)c(O[C@H]3C[C@@H]5C[C@@H]5C3)c2F)CC4)CCN1C  MTHFD2 recombinant human enzyme (Homo sapiens, UniProt P13995)             IC50      1 to 10 nM
3  COC[C@H]1CN(c2cc(C)c3c4c(c(=O)oc3c2C)CN(C(=O)c2ccc(C(=O)NS(=O)(=O)N(C)C)c(N3CCC[C@@H]3C)c2)CC4)CCN1C  MTHFD2 recombinant human enzyme (Homo sapiens, UniProt P13995)             IC50      1 to 10 nM
4  COC[C@H]1CN(c2cc(C)c3c4c(c(=O)oc3c2C)CN(C(=O)c2ccc(C(=O)NS(=O)(=O)N3CCCC3)c(F)c2)CC4)CCN1C  MTHFD2 recombinant human enzyme (Homo sapiens, UniProt P13995)             IC50      1 to 10 nM

###

- target.desc: MTHFD2 recombinant human enzyme (Homo sapiens, UniProt P13995)
- experiment.notes: MTHFD2 inhibition assay (NAD(P)H-Glo luminescence)
- experimental.conditions: selectivity of MTHFD2 inhibition over MTHFD1, band
reported.metric: MTHFD1/MTHFD2 IC50 ratio

molecule	measured.value
COC[C@H]1CN(c2cc(C)c3c4c(c(=O)oc3c2C)CN(C(=O)c2ccc(C(=O)NS(=O)(=O)C3(C)CC3)c(O[C@H]3C[C@@H]5C[C@@H]5C3)c2F)CC4)CCN1C	F (<3)
COC[C@H]1CN(c2cc(C)c3c4c(c(=O)oc3c2C)CN(C(=O)c2ccc(C(=O)NS(=O)(=O)N(C)C)c(N3CCC(C)(C)C3)c2)CC4)CCN1C	F (<3)
COC[C@H]1CN(c2cc(C)c3c4c(c(=O)oc3c2C)CN(C(=O)c2ccc(C(=O)NS(=O)(=O)N3CC5CC5C3)c(OC3CC3)c2F)CC4)CCN1C (some centres unmarked)	F (<3)
